Sourced from patent US20230114728A1

Tested on: N. gonorrhoeae WHO Q
method: Liquid broth MIC in Fastidious broth
Assay type: cell-based
conditions: Neisseria gonorrhoeae, read-out: Minimum Inhibitory Concentration, N. gonorrhoeae WHO Q
quantity_kind: MIC

-- ask Could you share which MIC value was measured for CCN1CCN(C(=O)N[C@@H](C(=O)N[C@H]2Cc3cccc(C(=O)O)c3OB2O)c2ccc(C(=O)O)c(Cl)c2)C(=O)C1=O (single isomer, unassigned) [Example 154] ?
-- reply 1 to 2 µg/mL

-- ask Could you share which MIC value was measured for CCN1CCN(C(=O)NC(C(=O)N[C@H]2Cc3cccc(C(=O)O)c3OB2O)c2c(F)cc(N)cc2F)C(=O)C1=O (stereo partly drawn) [Example 181] ?
-- reply 16 to 32 µg/mL

-- ask Could you share which MIC value was measured for NCCN1CCN(C(=O)N[C@H](C(=O)N[C@H]2Cc3ccc(F)c(C(=O)O)c3OB2O)c2c(F)cc(O)cc2F)C(=O)C1=O (single isomer, unassigned) [Example 128] ?
-- reply > 64 µg/mL

-- ask Could you share which MIC value was measured for NCCN1CCN(C(=O)NC(C(=O)N[C@H]2Cc3cccc(C(=O)O)c3OB2O)c2cc(Cl)c(O)cc2F)C(=O)C1=O (stereo partly drawn) [Example 87] ?
-- reply > 64 µg/mL

-- ask Could you share which MIC value was measured for NCCN1CCN(C(=O)N[C@@H](C(=O)N[C@H]2Cc3cccc(C(=O)O)c3OB2O)c2ccc(O)c(Cl)c2F)C(=O)C1=O (single isomer, unassigned) [Example 186] ?
-- reply > 64 µg/mL

-- ask Could you share which MIC value was measured for NCCCN1CCN(C(=O)NC(C(=O)N[C@H]2Cc3cccc(C(=O)O)c3OB2O)c2ccc(C(N)=O)c(O)c2)C(=O)C1=O (stereo partly drawn) [Example 47] ?
-- reply > 64 µg/mL

-- ask Could you share which MIC value was measured for CCN1CCN(C(=O)N[C@H](C(=O)N[C@H]2Cc3cccc(C(=O)O)c3OB2O)c2ccc(C(=O)O)cc2)C(=O)C1=O (single isomer, unassigned) [Example 123] ?
-- reply 4 to 8 µg/mL

-- ask Could you share which MIC value was measured for CCN1CCN(C(=O)NC(C(=O)N[C@H]2Cc3ccc(OCCN)c(C(=O)O)c3OB2O)c2ccccc2)C(=O)C1=O (stereo partly drawn) [Example 60] ?
-- reply > 64 µg/mL

-- ask Could you share which MIC value was measured for CCN1CCN(C(=O)N[C@H](C(=O)N[C@H]2Cc3cccc(C(=O)O)c3OB2O)c2ccc(C(=O)O)c(Cl)c2)C(=O)C1=O (single isomer, unassigned) [Example 155] ?
-- reply 1 to 2 µg/mL

-- ask Could you share which MIC value was measured for CCN1CCN(C(=O)NC(C(=O)N[C@H]2Cc3cccc(C(=O)O)c3OB2O)c2ccc(O)cc2OC)C(=O)C1=O (stereo partly drawn) [Example 70] ?
-- reply > 64 µg/mL

-- ask Could you share which MIC value was measured for CCN1CCN(C(=O)NC(C(=O)N[C@H]2Cc3cccc(C(=O)O)c3OB2O)c2cccc(NS(N)(=O)=O)c2)C(=O)C1=O (stereo partly drawn) [Example 98] ?
-- reply 16 to 32 µg/mL

-- ask Could you share which MIC value was measured for CCN1CCN(C(=O)NC(C(=O)N[C@H]2Cc3cccc(C(=O)O)c3OB2O)c2cccc([N+](=O)[O-])c2)C(=O)C1=O (stereo partly drawn) [Example 75] ?
-- reply 16 to 32 µg/mL

-- ask Could you share which MIC value was measured for NCCN1CCN(C(=O)N[C@@H](C(=O)N[C@H]2Cc3cccc(C(=O)O)c3OB2O)c2cc(Cl)c(O)c(Cl)c2)C(=O)C1=O (single isomer, unassigned) [Example 166] ?
-- reply 16 to 32 µg/mL

-- ask Could you share which MIC value was measured for CCN1CCN(C(=O)N[C@H](C(=O)N[C@H]2Cc3cccc(C(=O)O)c3OB2O)c2cc(O)cc(O)c2)C(=O)C1=O (single isomer, unassigned) [Example 81] ?
-- reply 16 to 32 µg/mL

-- ask Could you share which MIC value was measured for C[C@@H](O)[C@@H](NC(=O)N1CCN(CCNC(=O)c2c(F)cc(O)c(O)c2Cl)C(=O)C1=O)C(=O)N[C@H]1Cc2ccc(F)c(C(=O)O)c2OB1O [Example 102] ?
-- reply > 64 µg/mL

-- ask Could you share which MIC value was measured for O=C(NC(C(=O)N[C@H]1Cc2ccc(F)c(C(=O)O)c2OB1O)c1ncc(O)cc1F)c1ccnc(F)c1 (stereo partly drawn) [Example 53] ?
-- reply > 64 µg/mL

-- ask Could you share which MIC value was measured for NCCN1CCN(C(=O)N[C@@H](C(=O)N[C@H]2Cc3cccc(C(=O)O)c3OB2O)c2cc(Cl)c(O)cc2Cl)C(=O)C1=O [Example 90] ?
-- reply > 64 µg/mL

-- ask Could you share which MIC value was measured for CCN1CCN(C(=O)NC(C(=O)N[C@H]2Cc3cccc(C(=O)O)c3OB2O)c2c(F)cc(O)cc2Cl)C(=O)C1=O (stereo partly drawn) [Example 95] ?
-- reply 16 to 32 µg/mL

-- ask Could you share which MIC value was measured for NCCCN1CCN(C(=O)N[C@@H](C(=O)N[C@H]2Cc3cc(Cl)c(F)c(C(=O)O)c3OB2O)c2c(F)cc(O)c(O)c2Cl)C(=O)C1=O [Example 190] ?
-- reply > 64 µg/mL

-- ask Could you share which MIC value was measured for CCN1CCN(C(=O)NC(C(=O)N[C@H]2Cc3cccc(C(=O)O)c3OB2O)c2c(F)cc(NC(C)=O)cc2F)C(=O)C1=O (stereo partly drawn) [Example 188] ?
-- reply 16 to 32 µg/mL

-- ask Could you share which MIC value was measured for NCCN1CCN(C(=O)N[C@@H](C(=O)N[C@H]2Cc3cccc(C(=O)O)c3OB2O)c2ccc(C(=O)O)cc2)C(=O)C1=O (single isomer, unassigned) [Example 84] ?
-- reply 16 to 32 µg/mL

-- ask Could you share which MIC value was measured for NS(=O)(=O)Nc1cccc(C(NC(=O)N2CCN(Cc3c(F)cc(O)c(O)c3Cl)C(=O)C2=O)C(=O)N[C@H]2Cc3cccc(C(=O)O)c3OB2O)c1 (stereo partly drawn) [Example 131] ?
-- reply > 64 µg/mL

-- ask Could you share which MIC value was measured for NCCN1CCN(C(=O)N[C@@H](C(=O)N[C@H]2Cc3cccc(C(=O)O)c3OB2O)c2ccc(O)c(F)c2F)C(=O)C1=O (single isomer, unassigned) [Example 170] ?
-- reply > 64 µg/mL

-- ask Could you share which MIC value was measured for CCN1CCN(C(=O)NC(C(=O)N[C@H]2Cc3cccc(C(=O)O)c3OB2O)c2cccc(CNS(N)(=O)=O)c2)C(=O)C1=O (stereo partly drawn) [Example 107] ?
-- reply > 64 µg/mL
